# Assay details: NCI Yeast Anticancer Drug Screen. Data for the mlh1 rad18 strain (AID 175)
# Particulars: S. cerevisiae mlh1 rad18 strain growth inhibition; at 50.0 µM; hits give high values
This is part of a sample that, as a whole, favours compounds with a hit. Of some 79,000 tested, about 15% had one in any assay.
Decide by growth inhibition: equal to or exceeding 20% means fulfilled, less means not fulfilled.

| Compound | Assigned label |
| --- | --- |
| COc1ccc(N(C)CN(C)c2nc(N(C)C)nc(N(C)C)n2)cc1 | not fulfilled |
| Cc1cc(N(CCC#N)CCC#N)ccc1/C(N=Nc1ccccc1)=N\NC(=O)c1ccccc1 | fulfilled |
| C=CCNC(=S)N(Cc1ccccc1)Cc1ccccc1 | fulfilled |

Request: Please check the record C(=Nc1ccc2c(c1)Cc1ccccc1-2)c1ccc2c(c1)OCO2 and state if its growth inhibition is at or above 20%.
Result: not fulfilled

Request: Lookup Cc1ccccc1CN
Result: fulfilled

Request: Lookup CCCCCCCCCCCCCCCCCCCCCCCCCCCCCCS(=O)(=O)Cl
Result: not fulfilled

Request: Lookup O=C(CCc1cc(-c2ccc(F)cc2)n[nH]1)N(Cc1ccccc1)Cc1ccccc1
Result: not fulfilled

Request: Lookup Oc1ccccc1C=Nc1ccccc1N=Cc1ccccc1O.[Zn]
Result: not fulfilled
